Reference source for all entries: patent US11925629B2

# Test system: HCT116 (colorectal carcinoma, K Ras G13D) cells
# assay.overview: Cell proliferation (Alamar Blue) assay, HCT116
# Format: cell-based, human
# test.settings: Homo sapiens, HCT-116, HCT116 cells
compounds and their reported IC50

{"columns": ["compound", "IC50"],
 "data": [
  ["Cc1cnc(NC2CCOCC2)nc1-n1cnc(C(=O)N[C@H](CNCC2CC2)c2cccc(Cl)c2)c1", "≤ 0.1 µM"],
  ["Cc1cnc(Nc2ccccc2)cc1-n1cnc(C(=O)NC(CO)c2cccc(Cl)c2)c1 (centres unmarked)", "> 2.5 µM"],
  ["Cc1cnc(N[C@H]2CCOC2)nc1-n1cnc(C(=O)NCc2cccc(Cl)c2Cl)c1", "> 2.5 µM"],
  ["Cc1cnc(Nc2ccc(F)cc2)nc1-n1cnc(C(=O)N[C@H](CN)c2cccc(Cl)c2)c1", "≤ 0.1 µM"],
  ["Cc1cnc(N[C@H]2CCOC2)nc1-n1cnc(C(=O)NCc2ccc(Cl)c(F)c2)c1", "> 2.5 µM"],
  ["COc1cc(N2CCN(C(C)=O)CC2)ccc1Nc1nccc(-n2cc(NC(=O)N[C@H](CO)c3cccc(Cl)c3)cn2)n1", "> 2.5 µM"]
]}

Note: attention shifts to another entry.
### Prompt Requested field: IC50. Item: Cc1cnc(NC2(CO)CC2)nc1-n1ccc(C(=O)NC(CO)c2ccc(F)c(Cl)c2)c1 (centres unmarked)
### Response > 2.5 µM

* * *

# measurement.target: ERK1 (Homo sapiens)
# Construct: purchased Jubilant Biosys
# Sequence (P27361 whole entry): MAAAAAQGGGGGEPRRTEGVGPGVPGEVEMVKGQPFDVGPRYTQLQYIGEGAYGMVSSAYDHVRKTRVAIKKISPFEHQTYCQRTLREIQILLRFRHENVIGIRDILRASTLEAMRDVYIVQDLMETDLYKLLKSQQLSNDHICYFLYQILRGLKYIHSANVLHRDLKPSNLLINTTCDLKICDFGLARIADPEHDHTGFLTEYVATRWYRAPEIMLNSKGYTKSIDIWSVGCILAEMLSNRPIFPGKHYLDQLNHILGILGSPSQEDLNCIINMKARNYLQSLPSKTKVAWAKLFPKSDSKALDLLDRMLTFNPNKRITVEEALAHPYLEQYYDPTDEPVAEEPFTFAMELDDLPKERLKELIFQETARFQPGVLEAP
# assay.overview: ERK1 HTRF (biochemical) assay
# test.settings: HTRF
assay.endpoint: IC50

### Prompt Requested field: IC50. Item: Cc1cnc(N[C@H]2CCOC2)nc1-n1cnc(C(=O)NCc2cccc(Cl)c2F)c1
### Response < 50 nM

### Prompt Requested field: IC50. Item: Cc1cccc(CNC(=O)c2cn(-c3nc(N[C@H]4CCOC4)ncc3C)cn2)c1
### Response < 50 nM

### Prompt Requested field: IC50. Item: Cc1cnc(N[C@H]2CCOC2)nc1-n1cnc(C(=O)NC(C)(C)c2cccc(Cl)c2CO)c1
### Response 100 to 500 nM

### Prompt Requested field: IC50. Item: Cc1cnc(N[C@H]2CCOC2)nc1-n1cnc(C(=O)NCc2cccc(C(C)(C)C)c2)c1
### Response < 50 nM

* * *

compounds and their reported pIC50
# System: HCT116 (colorectal carcinoma, K Ras G13D) cells
# assay.overview: Cell proliferation (Alamar Blue) assay, HCT116
# Type: cell-based, human
# test.settings: Homo sapiens, HCT-116, HCT116 cells
pIC50: −log10 of the molar value.

{"columns": ["compound", "assay.endpoint", "recorded.result"],
 "data": [
  ["Cc1cnc(Nc2ccc3c(c2)OCO3)nc1-n1cc(NC(=O)N[C@H](CO)c2cccc(Cl)c2)cn1", "pIC50", "< 5.60"],
  ["Cc1cnc(NC(C)c2ccccc2)nc1-n1ccc(C(=O)NC(CO)c2ccccc2)c1 (stereo not drawn)", "pIC50", "< 5.60"]
]}

### Prompt Requested field: pIC50. Item: Cc1cccc(CNC(=O)c2cn(-c3nc(N[C@H]4CCOC4)ncc3C)cn2)c1
### Response < 5.60

### Prompt Requested field: pIC50. Item: Cc1cnc(N[C@H]2CCOC2)nc1-n1cnc(C(=O)NCc2cccc(C(F)(F)F)c2)c1
### Response < 5.60

### Prompt Requested field: pIC50. Item: Cc1cnc(Nc2ccc3c(c2)OCO3)nc1-n1cc(C(=O)N[C@H](CO)c2cccc(Cl)c2)cn1
### Response < 5.60

### Prompt Requested field: pIC50. Item: Cc1cnc(Nc2ccc3c(c2)OC(F)(F)O3)nc1-n1ccc(C(=O)NC(CO)c2cccc(Cl)c2)c1 (stereo not drawn)
### Response 5.60 to 6.30

### Prompt Requested field: pIC50. Item: CC[C@@H](CO)Nc1ncc(C)c(-n2ccc(C(=O)NC(CO)c3ccccc3)c2)n1 (stereo partly drawn)
### Response < 5.60

### Prompt Requested field: pIC50. Item: Cc1cnc(N[C@H]2CCOC2)nc1-n1cnc(C(=O)N[C@H](CO)c2cccc(Cl)c2)c1
### Response < 5.60

### Prompt Requested field: pIC50. Item: Cc1cnc(Nc2ccc3c(c2)CCO3)nc1-n1ccc(C(=O)NC(CO)c2cccc(Cl)c2)c1 (stereo not drawn)
### Response 6.60 to 7.00

* * *

# System: HCT116 (colorectal carcinoma, K Ras G13D) cells
# assay.overview: Cell proliferation (Alamar Blue) assay, HCT116
# Format: cell-based, human
# test.settings: Homo sapiens, HCT-116, HCT116 cells
assay.endpoint: IC50

Observe how each entry below is paired with its result.
{"columns": ["compound", "IC50"],
 "data": [
  ["Cc1cnc(NC2CCOCC2)nc1-n1cnc(C(=O)NC(CN)c2cc(F)cc(Cl)c2)c1 (stereo not drawn)", "≤ 100 nM"],
  ["Cc1cnc(Nc2ccccc2)cc1-n1ccc(C(=O)NC(CO)c2ccccc2)c1 (stereo not drawn)", "> 2500 nM"],
  ["Cc1cnc(Nc2ccc3c(c2)OCO3)nc1-n1ccc(C(=O)N[C@H](CO)c2ccccc2)c1", "100 to 250 nM"]
]}

### Prompt What reported IC50 corresponds to Cc1cnc(Nc2ccc3ocnc3c2)nc1-n1ccc(C(=O)NC(CO)c2ccccc2)c1 (stereo not drawn) on HCT116 (colorectal carcinoma, K Ras G13D) cells?
### Response > 2500 nM

### Prompt What reported IC50 corresponds to NCC(NC(=O)c1cn(-c2ccnc(Nc3ccc(F)cc3)c2)cn1)c1ccccc1 (stereo not drawn) on HCT116 (colorectal carcinoma, K Ras G13D) cells?
### Response 500 to 2500 nM

### Prompt What reported IC50 corresponds to Cc1cnc(NC2CCOC2)nc1-n1cnc(C(=O)NC(CN)c2cccc(Cl)c2)c1 (stereo not drawn) on HCT116 (colorectal carcinoma, K Ras G13D) cells?
### Response 100 to 250 nM

* * *

# Tested on: HCT116 (colorectal carcinoma, K Ras G13D) cells
# assay.overview: Cell proliferation (Alamar Blue) assay, HCT116
# Format: cell-based, human
# test.settings: Homo sapiens, HCT-116, HCT116 cells
assay.endpoint: IC50

{"columns": ["compound", "IC50"],
 "data": [
  ["Cc1cnc(NC2CCOC2)nc1-n1ccc(C(=O)N[C@H](CO)c2ccc(F)c(Cl)c2)c1 (some centres unmarked)", "500 to 2500 nM"],
  ["Cc1cnc(NC2CC2)nc1-n1cc(C(=O)N[C@H](CO)c2cccc(Cl)c2)cn1", "> 2500 nM"],
  ["Cc1cnc(N[C@H]2CCOC2)nc1-n1cnc(C(=O)NC(CN)c2cc(F)cc(Cl)c2)c1 (some centres unmarked)", "≤ 100 nM"],
  ["Cc1cnc(N[C@@H]2CCOC2)nc1-n1cnc(C(=O)N[C@H](CO)c2cccc(Cl)c2)c1", "100 to 250 nM"]
]}

### Prompt What reported IC50 corresponds to COc1ccc(Nc2ncc(C)c(-n3ccc(C(=O)NC(CO)c4cccc(Cl)c4)c3)n2)cc1OCCCN(C)C (centres unmarked) on HCT116 (colorectal carcinoma, K Ras G13D) cells?
### Response 250 to 500 nM

* * *

molecules and their reported pIC50
# Tested on: HCT116 (colorectal carcinoma, K Ras G13D) cells
# assay.overview: Cell proliferation (Alamar Blue) assay, HCT116
# Assay type: cell-based, human
# test.settings: Homo sapiens, HCT-116, HCT116 cells
pIC50: −log10 of the molar value.

Observe how each entry below is paired with its result.
{"columns": ["molecule", "pIC50"],
 "data": [
  ["O=C(N[C@H](CO)c1cccc(Cl)c1)c1ccn(-c2nc(NC3CCOCC3)ncc2F)c1", "5.60 to 6.30"],
  ["Cc1cnc(NC2CCOCC2)nc1-n1cnc(C(=O)NCc2cccc(CO)c2Cl)c1", "< 5.60"]
]}

### Prompt Requested field: pIC50. Item: Cc1cnc(Nc2ccc(F)cc2Cl)nc1-n1ccc(C(=O)NC(CO)c2cccc(Cl)c2)c1 (stereo not shown)
### Response 5.60 to 6.30

### Prompt Requested field: pIC50. Item: Cc1cnc(N[C@H]2CCOC2)nc1-n1cnc(C(=O)N[C@H](CN)c2cccc(Cl)c2)c1
### Response ≥ 7.00

* * *

# Test system: HCT116 (colorectal carcinoma, K Ras G13D) cells
# assay.overview: Cell proliferation (Alamar Blue) assay, HCT116
# Format: cell-based, human
# test.settings: Homo sapiens, HCT-116, HCT116 cells
pIC50: −log10 of the molar value.
assay.endpoint: pIC50

{"columns": ["compound", "measurement.target", "recorded.result"],
 "data": [
  ["Cc1cnc(Nc2ccc(F)cc2Cl)nc1-n1cc(C(=O)NC(CO)c2cccc(Cl)c2)cn1 (stereo not shown) [Example 45]", "HCT116 (colorectal carcinoma, K Ras G13D) cells", "< 5.60"],
  ["Cc1cnc(Nc2ccccc2Cl)nc1-n1cc(NC(=O)N[C@H](CO)c2cccc(Cl)c2)cn1 [Cmpd 2]", "HCT116 (colorectal carcinoma, K Ras G13D) cells", "< 5.60"],
  ["O=C(NC(CO)c1cccc(Cl)c1)c1ccn(-c2cc(Nc3ccccc3)ncc2Cl)c1 (stereo not shown) [Example 124]", "HCT116 (colorectal carcinoma, K Ras G13D) cells", "< 5.60"],
  ["Cc1cnc(NC2CCCCC2O)nc1-n1ccc(C(=O)NC(CO)c2ccc(F)c(Cl)c2)c1 (stereo not shown) [Example 202]", "HCT116 (colorectal carcinoma, K Ras G13D) cells", "< 5.60"]
]}

### Prompt Requested field: pIC50. Item: Cc1cnc(Nc2ccc3c(c2)CCCO3)nc1-n1ccc(C(=O)NC(CO)c2ccccc2)c1 (stereo not shown) [Example 173]
### Response 6.60 to 7.00
